// provenance: the supplement of paper PMC4466140

# experimentalTarget: CaNbp2
# measurementNotes: SPOT peptide array binding signal intensity (averaged, normalized) (arbitrary units (background-subtracted, floor 0; scale differs between SH3 domains)); higher = stronger binding of the SH3 domain to the peptide
metric: SPOT peptide array binding signal intensity

// query SPOT peptide array binding signal intensity value for entry SAPDIPPRSPNRNAH
≤ 0

// query SPOT peptide array binding signal intensity value for entry NQARKPFLLPATELS
100

// query SPOT peptide array binding signal intensity value for entry PSRRAPLQLPQLVNK
324

// query SPOT peptide array binding signal intensity value for entry VLRFLGFPLPIFEKG
129

// query SPOT peptide array binding signal intensity value for entry EEEEEHPPLPARRKS
≤ 0

// query SPOT peptide array binding signal intensity value for entry NMLKKKPLKKPLKRF
438

// query SPOT peptide array binding signal intensity value for entry KKAPPPVVKPKPRNF
36.5
